# assay.name: Human HepG2 cell viability assay in 384 well format
# Format: toxicity, cell-based
# Set-up: dose 125 nL, time 70.5 hour; concentration not given beside the values
# experimental.context: HepG2 cells, read-out: Inhibition

>  <molecule>
CC1CCCN(CCNC(=O)c2cncnc2C(C)C)C1 (stereo not drawn)

>  <cytotoxicity at 70.5 h>
-4.07%

$$$$
>  <molecule>
CCc1noc(C2CCCCN2C(=O)c2cc(C)oc2C)n1 (stereo not drawn)

>  <cytotoxicity at 70.5 h>
11.6%

$$$$
>  <molecule>
CCc1noc(CNc2cc3c(cc2Cl)OCCO3)n1

>  <cytotoxicity at 70.5 h>
15.1%

$$$$
>  <molecule>
CCC(=O)N1CCCC1c1n[nH]cc1-c1ccccc1F (stereo not drawn)

>  <cytotoxicity at 70.5 h>
-6.39%

$$$$
>  <molecule>
CN(C)C(=O)C1CCN(Cc2csc(C(C)(C)C)n2)CC1

>  <cytotoxicity at 70.5 h>
18%

$$$$
>  <molecule>
O=C(CCCn1cncn1)NC1CCc2nccn2C1 (stereo not drawn)

>  <cytotoxicity at 70.5 h>
-0.0953%

$$$$
>  <molecule>
CSCCN1CCC(NC(=O)OC(C)(C)C)CC1

>  <cytotoxicity at 70.5 h>
-6.72%

$$$$
>  <molecule>
CCOc1ccccc1C(CC(=O)Nc1ccncc1)NC(C)=O (stereo not drawn)

>  <cytotoxicity at 70.5 h>
-7.74%

$$$$
>  <molecule>
CC(C)Cc1cn(C2CCN(C(C)CC3CC3)CC2)nn1 (stereo not drawn)

>  <cytotoxicity at 70.5 h>
-0.853%

$$$$
>  <molecule>
Nc1nc2c(c(N3CCC(CCn4cccn4)CC3)n1)CCNCC2

>  <cytotoxicity at 70.5 h>
-5.53%

$$$$
>  <molecule>
COC(=O)c1ccc(N2CCN(C(=O)c3cnn(C)c3)C(C)C2)cc1 (stereo not drawn)

>  <cytotoxicity at 70.5 h>
16.7%

$$$$
>  <molecule>
O=C(NCC(=O)N1CCCC(c2ccccc2)CC1)c1ccoc1 (stereo not drawn)

>  <cytotoxicity at 70.5 h>
1.06%

$$$$
>  <molecule>
O=C(O)C1(Cc2cccc(-c3ccc(F)c(F)c3)c2)CCOCC1

>  <cytotoxicity at 70.5 h>
-19.2%

$$$$

---

# assay.name: Human HepG2 cell viability assay in 384 well format
# Assay type: toxicity, cell-based
# Parameters: dose 125 nL, time 70.5 hour; concentration not given beside the values
# experimental.context: HepG2 cells, read-out: Inhibition
property.name: cytotoxicity at 70.5 h (%)

>  <compound>
CCC(C)NC(=O)c1cccc(CNC(=O)CC(F)(F)F)c1 (stereo not drawn)

>  <unit.label>
%

>  <experimental.value>
-6.23

$$$$
>  <compound>
c1ccc2c(c1)nnn2CCCNC1CCOC2(CCOCC2)C1 (stereo not drawn)

>  <unit.label>
%

>  <experimental.value>
-5

$$$$
>  <compound>
CCOCC1c2c(ncn2C)CCN1C(=O)c1ccoc1 (stereo not drawn)

>  <unit.label>
%

>  <experimental.value>
-17.6

$$$$
>  <compound>
CCn1cc(-c2cc(C(F)(F)F)nn2CCC#N)cn1

>  <unit.label>
%

>  <experimental.value>
-9.49

$$$$
>  <compound>
CCCNC(=O)c1nn(CC)cc1NC(=O)C(C)n1ncc(Cl)c1C (stereo not drawn)

>  <unit.label>
%

>  <experimental.value>
-5.37

$$$$
>  <compound>
Cn1c(SCC(O)COCc2ccc(Cl)cc2)nnc1C1CC1 (stereo not drawn)

>  <unit.label>
%

>  <experimental.value>
-3.52

$$$$
>  <compound>
O=C(NCc1ccoc1)c1ccc(C2CCCN2CC2CCOCC2)s1 (stereo not drawn)

>  <unit.label>
%

>  <experimental.value>
38.9

$$$$
>  <compound>
Cc1cnc(-c2nc(O)c3c(n2)CN(C(=O)C2CC2)CC3)cn1

>  <unit.label>
%

>  <experimental.value>
-4.33

$$$$
>  <compound>
Nc1ncc(-c2ccc(C(F)(F)F)cc2)c(C2CCCNC2)n1 (stereo not drawn)

>  <unit.label>
%

>  <experimental.value>
0.61

$$$$
>  <compound>
CCOc1cccc(CNC(=O)CN2CCC3(CCOC3)C2)c1 (stereo not drawn)

>  <unit.label>
%

>  <experimental.value>
-6.18

$$$$
>  <compound>
Cc1cc(N)nc(SC2CCN(c3ccccc3)C2=O)n1 (stereo not drawn)

>  <unit.label>
%

>  <experimental.value>
-2.2

$$$$
>  <compound>
CN(C)S(=O)(=O)NC1CC(=O)N(c2ccccc2Cl)C1 (stereo not drawn)

>  <unit.label>
%

>  <experimental.value>
-17.3

$$$$
>  <compound>
N#Cc1cccc(CNC(=O)NC2CCN(CC(F)F)CC2)c1

>  <unit.label>
%

>  <experimental.value>
17.7

$$$$
>  <compound>
O=C(C1CCCCN1Cc1nccn1CC(F)(F)F)N1CCCC1 (stereo not drawn)

>  <unit.label>
%

>  <experimental.value>
-2.02

$$$$
>  <compound>
Cc1cnc(CN2CCCC2c2noc(C)n2)cn1 (stereo not drawn)

>  <unit.label>
%

>  <experimental.value>
5.04

$$$$
>  <compound>
Cc1ccccc1C1(C(=O)NCCN2CCCC(C)C2)CCOCC1 (stereo not drawn)

>  <unit.label>
%

>  <experimental.value>
32.7

$$$$
>  <compound>
Cc1nnc(CN2CCC(N(C)Cc3nnc(C4CC4)n3C)C2)o1 (stereo not drawn)

>  <unit.label>
%

>  <experimental.value>
-21.8

$$$$
>  <compound>
Cn1cnc(-c2nc(C(=O)NC3CC3)c3ccccn23)c1

>  <unit.label>
%

>  <experimental.value>
-1.89

$$$$

These measurements were taken from ChEMBL document CHEMBL3507680.
